src = ChEMBL document CHEMBL1157430

# testTarget: UniProt:Q12809
# Sequence (Q12809 whole entry): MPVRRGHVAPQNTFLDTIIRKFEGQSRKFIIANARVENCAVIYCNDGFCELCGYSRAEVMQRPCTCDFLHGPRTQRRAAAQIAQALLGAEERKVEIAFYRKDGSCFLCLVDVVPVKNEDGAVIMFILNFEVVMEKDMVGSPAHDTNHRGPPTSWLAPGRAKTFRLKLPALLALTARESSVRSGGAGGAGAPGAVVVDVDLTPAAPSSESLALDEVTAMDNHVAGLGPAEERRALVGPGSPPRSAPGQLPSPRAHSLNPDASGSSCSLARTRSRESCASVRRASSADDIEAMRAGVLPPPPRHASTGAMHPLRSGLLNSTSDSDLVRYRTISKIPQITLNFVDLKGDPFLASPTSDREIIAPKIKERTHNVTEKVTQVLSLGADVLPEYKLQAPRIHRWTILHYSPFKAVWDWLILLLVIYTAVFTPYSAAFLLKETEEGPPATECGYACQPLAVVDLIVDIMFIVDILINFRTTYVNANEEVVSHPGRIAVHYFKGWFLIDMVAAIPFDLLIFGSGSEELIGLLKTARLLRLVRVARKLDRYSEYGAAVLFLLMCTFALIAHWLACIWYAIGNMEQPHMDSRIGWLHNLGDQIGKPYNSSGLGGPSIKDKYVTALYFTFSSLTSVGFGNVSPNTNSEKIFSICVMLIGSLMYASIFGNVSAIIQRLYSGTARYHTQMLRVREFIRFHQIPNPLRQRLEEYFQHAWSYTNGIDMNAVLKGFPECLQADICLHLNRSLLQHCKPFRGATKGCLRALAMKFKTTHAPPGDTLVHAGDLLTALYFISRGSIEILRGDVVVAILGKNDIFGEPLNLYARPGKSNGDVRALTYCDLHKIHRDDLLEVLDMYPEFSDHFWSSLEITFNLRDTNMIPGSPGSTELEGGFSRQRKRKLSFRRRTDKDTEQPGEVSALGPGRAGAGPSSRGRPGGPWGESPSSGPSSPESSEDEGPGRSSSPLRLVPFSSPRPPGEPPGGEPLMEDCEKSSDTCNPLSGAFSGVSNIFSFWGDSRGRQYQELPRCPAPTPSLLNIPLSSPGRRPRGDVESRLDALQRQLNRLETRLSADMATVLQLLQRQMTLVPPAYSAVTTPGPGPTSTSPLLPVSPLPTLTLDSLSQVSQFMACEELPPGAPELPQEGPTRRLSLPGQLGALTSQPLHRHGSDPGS
# experimentDescription: Displacement of [35S]MK499 from human ERG in HEK293 cell membrane
assayReadout: pIC50
One number for each entry, as −log10 of the molar value.

[
  {
    "querySmiles": "Cc1cccnc1-n1cc(CN2CCC3(CC2)OCc2ccccc23)c(C)n1",
    "pIC50": 4.89
  }
]

Given Cc1nn(-c2c(Cl)cccc2NS(C)(=O)=O)cc1CN1CCC2(CC1)OCc1ccccc12 , state its recorded pIC50. 4.77

---

Exercise: state measured pIC50 for each of the compounds provided.
# testTarget: Mu-type opioid receptor (Homo sapiens, UniProt P35372)
# Sequence (P35372 whole entry): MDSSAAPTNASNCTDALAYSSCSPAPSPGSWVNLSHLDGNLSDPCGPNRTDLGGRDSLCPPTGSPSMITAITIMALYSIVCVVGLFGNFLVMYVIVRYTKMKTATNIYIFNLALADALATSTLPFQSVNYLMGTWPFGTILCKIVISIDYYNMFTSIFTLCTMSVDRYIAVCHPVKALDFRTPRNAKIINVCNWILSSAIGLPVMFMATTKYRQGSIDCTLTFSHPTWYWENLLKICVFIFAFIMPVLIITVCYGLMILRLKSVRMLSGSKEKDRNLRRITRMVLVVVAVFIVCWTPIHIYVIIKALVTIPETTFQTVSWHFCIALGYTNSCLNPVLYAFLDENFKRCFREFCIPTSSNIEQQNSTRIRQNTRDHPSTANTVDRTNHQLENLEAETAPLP
# experimentDescription: Displacement of [3H]diprenorphin from human cloned mu opioid receptor expressed in CHO cells
Answers are plain numbers, as −log10 of the molar value.

[
  {
    "querySmiles": "Cc1cccnc1-n1cc(CN2CCC3(CC2)OCc2ccccc23)c(C)n1",
    "testTarget": "Mu-type opioid receptor (Homo sapiens, UniProt P35372)",
    "assayReadout": "pIC50",
    "measValue": 5.36
  }
]

For every item below, please supply its pIC50.
1. Cc1nn(-c2ncccc2Cl)cc1CN1CCC2(CC1)OCc1ccccc12
2. Cc1nn(-c2ccccc2)cc1CN1CCC2(CC1)OCc1ccccc12

5.13
5.49

---

# experimentDescription: Displacement of [125I]Tyr14-NC/OFQ from human ORL1 expressed in CHO cells
# Assay type: cell-based
# condition: read-out: I50
assayReadout: pIC50
Numbers only, as −log10 of the molar value.

Known results for molecules:
[
  {
    "querySmiles": "Cc1nn(-c2ccncc2)cc1CN1CCC2(CC1)OCc1ccccc12",
    "pIC50": 6.09
  },
  {
    "querySmiles": "Cc1nn(-c2c(Cl)cccc2NS(C)(=O)=O)cc1CN1CCC2(CC1)OCc1ccccc12",
    "pIC50": 8.72
  }
]

Given CC(C)c1nn(-c2ccccc2)cc1CN1CCC2(CC1)OCc1ccccc12 , state its recorded pIC50. 7.68

---

# experimentDescription: Lipophilicity Log D at pH 7.4 by shake flask method
# Type: physicochemical
# condition: buffer
Exercise: state measured logD for each of the molecules provided.
Give bare numbers.

Known results for molecules:
[
  {
    "querySmiles": "Cc1nn(-c2cccc(Cl)n2)cc1CN1CCC2(CC1)OCc1ccccc12",
    "logD": 3.9
  },
  {
    "querySmiles": "Cc1nn(-c2ccc(Cl)cn2)cc1CN1CCC2(CC1)OCc1ccccc12",
    "logD": 3.5
  },
  {
    "querySmiles": "CC(=O)Nc1cccnc1-n1cc(CN2CCC3(CC2)OCc2ccccc23)c(C)n1",
    "logD": 3.2
  },
  {
    "querySmiles": "Cc1nn(-c2ncccc2NS(C)(=O)=O)cc1CN1CCC2(CC1)OCc1ccccc12",
    "logD": 2.1
  },
  {
    "querySmiles": "Cc1nn(-c2ccccn2)cc1CN1CCC2(CC1)OCc1ccccc12",
    "logD": 3.1
  }
]

Now consider the entry below.
Given Cc1cccnc1-n1cc(CN2CCC3(CC2)OCc2ccccc23)c(C)n1 , state its recorded logD. 2.7

---

# experimentDescription: Lipophilicity Log D at pH 7.4 by shake flask method
# Format: physicochemical
# condition: buffer
// label = 1 if logD is not less than 3, otherwise -1

Example cases with answers are listed next.
[
  {
    "querySmiles": "Cc1nn(-c2cnccn2)cc1CN1CCC2(CC1)OCc1ccccc12",
    "cat": 1
  },
  {
    "querySmiles": "Cc1nn(-c2c(Cl)cccc2NS(C)(=O)=O)cc1CN1CCC2(CC1)OCc1ccccc12",
    "cat": -1
  },
  {
    "querySmiles": "Cc1nn(-c2ccccc2)cc1CN1CCC2(CC1)OCc1ccccc12",
    "cat": 1
  }
]

Check the entry Cc1nn(-c2cccnc2)cc1CN1CCC2(CC1)OCc1ccccc12 : does logD equal or exceed 3? 1
